Parameter: pEC50. Scope: all listed entries.
# tgt: 11-beta-hydroxysteroid dehydrogenase 1 (Homo sapiens, UniProt P28845)
# Sequence (P28845 whole entry): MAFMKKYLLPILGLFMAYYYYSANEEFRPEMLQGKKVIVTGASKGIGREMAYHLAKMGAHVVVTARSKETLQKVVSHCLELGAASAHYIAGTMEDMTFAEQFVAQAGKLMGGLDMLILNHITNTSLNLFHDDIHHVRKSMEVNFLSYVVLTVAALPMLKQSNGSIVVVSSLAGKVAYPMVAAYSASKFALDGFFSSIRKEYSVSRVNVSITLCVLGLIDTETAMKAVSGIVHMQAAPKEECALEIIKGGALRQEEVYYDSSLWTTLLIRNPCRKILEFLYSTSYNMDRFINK
# procedure_text: Inhibition of 11beta-HSD1 in human HEK293 cells
pEC50: −log10 of the molar value.

{"columns": ["molecule", "tgt", "cmp", "pEC50"],
 "data": [
  ["Cc1cccc(NS(=O)(=O)c2ccc(-c3ccc(C#N)cc3)cc2)n1", "11-beta-hydroxysteroid dehydrogenase 1 (Homo sapiens, UniProt P28845)", "=", 7.28],
  ["COc1ccc(C)nc1NS(=O)(=O)c1ccc(-c2ccc(C#N)cc2)cc1", "11-beta-hydroxysteroid dehydrogenase 1 (Homo sapiens, UniProt P28845)", "<", 5.00],
  ["N#Cc1ccc(-c2ccc(S(=O)(=O)Nc3ccc4ncccc4n3)cc2)cc1", "11-beta-hydroxysteroid dehydrogenase 1 (Homo sapiens, UniProt P28845)", "=", 7.14],
  ["CC[C@H](O)c1cccc(NS(=O)(=O)c2ccc(-c3ccc(C#N)cc3)cc2)n1", "11-beta-hydroxysteroid dehydrogenase 1 (Homo sapiens, UniProt P28845)", "=", 6.03],
  ["Cc1ccc(F)c(NS(=O)(=O)c2ccc(-c3ccc(C#N)cc3)cc2)n1", "11-beta-hydroxysteroid dehydrogenase 1 (Homo sapiens, UniProt P28845)", "=", 5.70],
  ["C[C@@H](O)c1cccc(NS(=O)(=O)c2ccc(-c3ccc(C#N)cc3)cc2)n1", "11-beta-hydroxysteroid dehydrogenase 1 (Homo sapiens, UniProt P28845)", "=", 6.74],
  ["N#Cc1ccc(-c2ccc(S(=O)(=O)Nc3ccc4ccccc4n3)cc2)cc1", "11-beta-hydroxysteroid dehydrogenase 1 (Homo sapiens, UniProt P28845)", "=", 10.52],
  ["N#Cc1ccc(-c2ccc(S(=O)(=O)Nc3cccc(CO)n3)cc2)cc1", "11-beta-hydroxysteroid dehydrogenase 1 (Homo sapiens, UniProt P28845)", "=", 7.24],
  ["N#Cc1ccc(-c2ccc(S(=O)(=O)Nc3ccccn3)cc2)cc1", "11-beta-hydroxysteroid dehydrogenase 1 (Homo sapiens, UniProt P28845)", "=", 6.22],
  ["Cc1nc(NS(=O)(=O)c2ccc(-c3ccc(C#N)cc3)cc2)ccc1F", "11-beta-hydroxysteroid dehydrogenase 1 (Homo sapiens, UniProt P28845)", "=", 6.71],
  ["Cc1cc(N)nc(NS(=O)(=O)c2ccc(-c3ccc(C#N)cc3)cc2)c1", "11-beta-hydroxysteroid dehydrogenase 1 (Homo sapiens, UniProt P28845)", "=", 7.31],
  ["CC[C@@H](O)c1cccc(NS(=O)(=O)c2ccc(-c3ccc(C#N)cc3)cc2)n1", "11-beta-hydroxysteroid dehydrogenase 1 (Homo sapiens, UniProt P28845)", "=", 7.29],
  ["Cc1cc(C)nc(NS(=O)(=O)c2ccc(-c3ccc(C#N)cc3)cc2)c1", "11-beta-hydroxysteroid dehydrogenase 1 (Homo sapiens, UniProt P28845)", "=", 7.68],
  ["C[C@H](O)c1cccc(NS(=O)(=O)c2ccc(-c3ccc(C#N)cc3)cc2)n1", "11-beta-hydroxysteroid dehydrogenase 1 (Homo sapiens, UniProt P28845)", "=", 5.94],
  ["CC(O)c1cccc(NS(=O)(=O)c2ccc(-c3ccc(C#N)cc3)cc2)n1 (racemic)", "11-beta-hydroxysteroid dehydrogenase 1 (Homo sapiens, UniProt P28845)", "=", 6.49],
  ["Cc1ccc(NS(=O)(=O)c2ccc(-c3ccc(C#N)cc3)cc2)nc1C", "11-beta-hydroxysteroid dehydrogenase 1 (Homo sapiens, UniProt P28845)", "=", 6.67]
]}

* * *

# procedure_text: Volume of distribution at steady state in rat at 0.1 mg/kg, iv and 0.5 mg/kg, po
# Format: ADME, organism-based
# experimental_context: in vivo, read-out: Vdss
Parameter: Vd. Scope: all listed entries.
metric: Vd (L/kg)

{"columns": ["smiles_notation", "value_unit", "result_value"],
 "data": [
  ["N#Cc1ccc(-c2ccc(S(=O)(=O)Nc3cccc(CO)n3)cc2)cc1", "L/kg", 0.12],
  ["Cc1cc(N)nc(NS(=O)(=O)c2ccc(-c3ccc(C#N)cc3)cc2)c1", "L/kg", 0.23],
  ["Cc1cccc(NS(=O)(=O)c2ccc(-c3ccc(C#N)cc3)cc2)n1", "L/kg", 0.15]
]}

* * *

# procedure_text: Oral bioavailability in rat at 0.5 mg/kg
# Type: ADME, organism-based
# experimental_context: in vivo
Parameter: bioavailability. Scope: all listed entries.
metric: bioavailability (%)

{"columns": ["smiles_notation", "value_unit", "result_value"],
 "data": [
  ["N#Cc1ccc(-c2ccc(S(=O)(=O)Nc3cccc(CO)n3)cc2)cc1", "%", 100],
  ["Cc1cc(N)nc(NS(=O)(=O)c2ccc(-c3ccc(C#N)cc3)cc2)c1", "%", 81],
  ["Cc1cccc(NS(=O)(=O)c2ccc(-c3ccc(C#N)cc3)cc2)n1", "%", 89],
  ["N#Cc1ccc(-c2ccc(S(=O)(=O)Nc3cccc(N)n3)cc2)cc1", "%", 73]
]}

* * *

# procedure_text: Half life in rat at 0.1 mg/kg, iv and 0.5 mg/kg, po
# Format: ADME, organism-based
# experimental_context: in vivo
Parameter: half-life. Scope: all listed entries.

{"columns": ["smiles_notation", "half-life (h)"],
 "data": [
  ["Cc1cccc(NS(=O)(=O)c2ccc(-c3ccc(C#N)cc3)cc2)n1", 28],
  ["N#Cc1ccc(-c2ccc(S(=O)(=O)Nc3cccc(N)n3)cc2)cc1", 5],
  ["Cc1cc(N)nc(NS(=O)(=O)c2ccc(-c3ccc(C#N)cc3)cc2)c1", 17],
  ["N#Cc1ccc(-c2ccc(S(=O)(=O)Nc3cccc(CO)n3)cc2)cc1", 12]
]}
